Cited source for all entries: PubChem BioAssay (EPA / NIEHS)

- assay: Tanguay_ZF_120hpf_PFIN_legacy: (Legacy) Oregon State University Tanguay Lab 120 Hour Post-fertilization zebrafish Assay for Pectoral Fin Malformation (AID 2283648);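 also: each larva judged yes or no for fin defect by brightfield with dead larvae skipped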
Results filed as inconclusive are left out. The source made the active and inactive calls. The calls were made as follows: active = hit-call score of the fitted dose curve at least 0.9, where 1 is the maximum; inconclusive = response in the unintended direction; inactive = score below 0.9.
In this exercise, the only acceptable responses are t (active), f (inactive)

Oc1ccc(Cl)cc1Cl
f

Exam item: Kindly provide the recorded test outcome for the following compound: CO/C=C(/C(=O)OC)c1ccccc1COc1cccc(C(F)(F)F)n1
Marked response: t

Exam item: Kindly provide the recorded test outcome for the following compound: C1CC2OC2CC1C1CO1 (stereo not drawn)
Marked response: f

Exam item: Test call for this compound, please: Cc1cc(-c2ccc(N)c(C)c2)ccc1N
Marked response: f

Exam item: How was O=C(O)C(F)(F)C(F)(F)C(F)(F)C(F)(F)C(F)(F)F classified in this test?
Marked response: f

Exam item: Any idea what this test logged for CN(C)CCO ?
Marked response: f

Exam item: Recorded test outcome, item Nn1cnnc1
Marked response: f

Exam item: Given CCOCCOC(C)=O , state the outcome it received in this test.
Marked response: f
